# Test system: Protein mono-ADP-ribosyltransferase TIPARP (Homo sapiens, UniProt Q7Z3E1)
# Sequence (Q7Z3E1 whole entry): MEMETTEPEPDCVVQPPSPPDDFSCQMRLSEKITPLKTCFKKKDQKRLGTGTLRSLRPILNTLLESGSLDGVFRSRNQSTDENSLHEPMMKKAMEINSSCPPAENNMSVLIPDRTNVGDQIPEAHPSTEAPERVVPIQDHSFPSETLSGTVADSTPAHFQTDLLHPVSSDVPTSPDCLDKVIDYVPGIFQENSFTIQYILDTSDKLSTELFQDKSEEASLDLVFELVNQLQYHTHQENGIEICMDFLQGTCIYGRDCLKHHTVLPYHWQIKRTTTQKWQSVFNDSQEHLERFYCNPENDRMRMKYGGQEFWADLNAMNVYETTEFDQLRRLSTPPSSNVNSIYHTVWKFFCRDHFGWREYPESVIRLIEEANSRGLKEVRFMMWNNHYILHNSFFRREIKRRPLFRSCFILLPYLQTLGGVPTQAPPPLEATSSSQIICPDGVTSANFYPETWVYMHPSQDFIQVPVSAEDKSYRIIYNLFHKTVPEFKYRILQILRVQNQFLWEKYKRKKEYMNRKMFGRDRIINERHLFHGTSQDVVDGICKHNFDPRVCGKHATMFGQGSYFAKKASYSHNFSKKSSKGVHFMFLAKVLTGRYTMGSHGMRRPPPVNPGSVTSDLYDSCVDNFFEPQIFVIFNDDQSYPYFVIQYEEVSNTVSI
# Protocol text: Enzymatic Assay for Inhibition of PARP7
Reported IC50 values are given for each entry in this list.

Examples with their reported IC50 follow.
• O=C(c1cncc(OC[C@H]2c3ccccc3CN2c2cn[nH]c(=O)c2C(F)(F)F)c1)N1CCn2c(nnc2C(F)(F)F)C1 [US10550105, Example 372] = > 1000 nM
• N#Cc1ccc(N2CCN(C(=O)/C=C\COC[C@H]3c4ccccc4CN3c3cn[nH]c(=O)c3C(F)(F)F)CC2)nc1 [US10550105, Example 79C] = < 100 nM

// moving on: another record for IC50
Query for Protein mono-ADP-ribosyltransferase TIPARP (Homo sapiens, UniProt Q7Z3E1): what IC50 does the record show for N#Cc1ccc(N2CCN(C(=O)/C=C\COC[C@@H]3c4ccccc4CN3c3cn[nH]c(=O)c3C(F)(F)F)CC2)nc1 [US10550105, Example 79D] ?
< 100 nM

From: BindingDB's records for patent US10550105
